Tested on: RPMI-8226 leukemia
experimental_details: NCI tumour cell line growth inhibition, 48 h
measured_parameter: GI50

# count of solved cases: 4
Cc1ccc(S(=O)(=O)c2nc(-c3ccccc3)oc2S(C)=O)cc1 (stereo not given)	1400 nM
O=C(Nc1ccc(-c2nc(-c3cccc(OCCN4CCOCC4)c3)c(-c3ccnc(Br)c3)[nH]2)cc1)c1ccccc1	407 nM
COc1ccc(-c2nc(-c3nc4ccc(F)cc4[nH]3)c3ccccn23)cc1	2860 nM
O=c1[nH]c2nc(NC3CCOCC3)ncc2cc1Oc1ccc(F)cc1F	> 25000 nM

Response field GI50 (RPMI-8226 leukemia) for item `CCN=C1C=CC(=C(c2ccc(N(CC)CC)cc2)c2ccc(N(CC)CC)cc2)c2ccccc21` : 23.3 nM

###

Reported TGI values are given for each entry in this list.
Tested on: K-562 leukemia
experimental_details: NCI tumour cell line growth inhibition, 48 h

Please review the following examples before continuing.
Cc1nn2c(/C=C3/C(=O)Nc4cc(Cl)ccc43)c(-c3ccccc3)nc2s1	> 100 µM
Cn1cc(-c2ccc3nnc(Sc4ccc5ncccc5c4)n3n2)cn1	> 100 µM
CCOC(=O)CCn1ncc(Cl)c(Cl)c1=O	8.52 µM
COc1cc(C2c3cc4c(cc3C3OC[C@@H]2C3CO)OCO4)cc(OC)c1OC (stereo partly specified)	> 100 µM
CN=C(/N=c1\ssc(=NC)n1C)N(C)C	> 100 µM

Form: molecule = `CN(C)Cc1cc(C(=O)/C=C/c2ccccc2)cc(CN(C)C)c1O` ; TGI = 36.8 µM

###

System: SF-268 CNS
experimental_details: NCI tumour cell line growth inhibition, 48 h
measured_parameter: GI50

Please review the entries below; each comes with its answer.
COc1cnc2c(c1)C(=O)c1c-2n(CCCNCCO)c(=O)c2ccncc12	1280 nM
Cc1nn2c(/C=C3/C(=O)Nc4cc(Cl)ccc43)c(-c3ccccc3)nc2s1	6810 nM
Cc1nc(Nc2ccccn2)sc1C(=O)/C=C/c1ccc(Cl)cc1	974 nM
COc1cc2c(cc1OC)C(=O)/C(=C/c1cc(-c3ccc4c(c3)OCO4)n[nH]1)C2	1630 nM

Record `OCc1ccc(-c2cscc2-c2ccc(CO)o2)o1` . Reported GI50: > 100000 nM

###

Items are presented alongside their recorded log10 TGI.
Test system: UO-31 renal
experimental_details: NCI tumour cell line growth inhibition, 48 h
Friendly reminder: values = log10 of TGI, unit µM.

In the examples that follow, each entry is paired with its recorded log10 TGI.
CN(C)CCCNc1ccc2nnn3c4ccc(O)cc4c(=O)c1c23	0.99
CN1CCc2c1nc(-c1ccc(Cl)cc1)c1c2N(C)CC1	1.51
COc1cc2c(cc1OC)C(=O)/C(=C/c1cc(-c3ccc4c(c3)OCO4)n[nH]1)C2	0.43
CCCCCC[C@H](C)Nc1nc2ccccc2c2occc12	1.28
COc1ccc(-c2nc(-c3nc4ccc(F)cc4[nH]3)c3ccccn23)cc1	1.75
C=C1CCC2(C#N)[C@H]3[C@H](CC[C@@H]2C)[C@@H](C)C[C@@H](CC(C)(C)NC(=O)CN2CCC2=O)[C@H]13 (stereo not given in full)	1.89
O=C(Nc1ccc(-c2nc(-c3cccc(OCCN4CCOCC4)c3)c(-c3ccnc(Br)c3)[nH]2)cc1)c1ccccc1	0.75
C=CCC1C(O[Si](C)(C)C(C)(C)C)C(CO[Si](C)(C)C(C)(C)C)OC1n1ccc(=O)[nH]c1=O (stereo not given)	0.45

Proceed to the following item.
The molecule listed as `CC1=Cc2ccc(C)cc2C(=O)C1=O` has a reported log10 TGI of 0.48
